All figures here come from PubChem BioAssay (NCI).

Tested on: OVCAR-8 ovarian
Experiment: NCI-60 one-dose screen, 48 h (100 = growth as untreated, 0 = no growth, -100 = all killed)
Settings: 10 µM
This is part of a sample that, as a whole, favours compounds with a hit. Of some 83,000 tested, about 20% had one in any assay.
Please go through the items and note down their growth.
Report only the number, with the unit % understood.

Request the reported growth associated with "CCOC(=O)c1cc2c(n1Cc1ccccc1)-c1oncc1CC2"
97

Ok, now CCC(OC(=O)CC(C)C)c1ccccc1 (stereo not drawn)
93.4

Ok, now "C#CCNCCN1C(=O)c2ccc3c4c(ccc(c24)C1=O)C(=O)N(CCNCC#C)C3=O"
32

Ok, now CCCCN(CCCC)c1ccc(C(=NC(C)CCCN(CC)CC)c2ccc(N(C)C)cc2)cc1 (stereo not drawn)
-49

Ok, now "CCCCCCCCCCCCCCCC(=O)N1CCN(C)CC1"
86.3

Ok, now "COc1cc(OC)cc(N2CCN(C(=O)Nc3nc4cc(F)ccc4nc3OC)CC2)c1"
12.7

Ok, now COc1cc(C(c2c[nH]c3ccccc23)N2CCCC2)ccc1OCc1ccccc1 (stereo not drawn)
80.4

Ok, now "CC(=O)[C@H]1CC[C@H]2[C@@H]3CC[C@@H]4CC=C(C=O)C[C@]4(C)[C@H]3CC[C@]12C"
97.8

Ok, now "CNCCCNCCCN1C(=O)c2ccc3c4c(ccc(c24)C1=O)C(=O)N(CCCNCc1ccccc1OC)C3=O"
-31.9

Ok, now "Cc1noc(C)c1-c1ccc2nc(NC(=O)[C@H]3CCN(C#N)C3)cn2c1"
91.6

Ok, now "Cc1nnc2c3nnc(-c4ccc(Cl)cc4)n3c3ccccc3n12"
98.1

Ok, now "O=NN(CCCl)C(=O)Nc1ccc(NC(=O)N(CCCl)N=O)cc1"
93

Ok, now "COc1ccc(N2CCN(c3nc(-c4ccccc4)c(C#N)c(=O)[nH]3)CC2)cc1"
102

Ok, now "CCOCC[P+](c1ccccc1)(c1ccccc1)c1ccccc1"
46.5

Ok, now "CNC(=O)c1cc(Oc2ccc(NC(=O)Nc3ccc(Cl)c(OC(C)C)c3)c(F)c2)ccn1"
53.9

Ok, now "CCOC(=O)c1c(O)c2cc(-c3ccccc3)nc(OCC)c2c(=O)n1C"
104

Ok, now "COc1ccc(C(=O)/C=C/c2cc(-c3ccc(OC)c(OC)c3)n[nH]2)cc1OC"
-22.8

Ok, now "COc1ccc(-c2nnc(SC/C(=N\O)c3ccccc3)o2)cc1"
107

Ok, now "COc1ccc(/C=C2\SC(=S)N(CCCN3CCOCC3)C2=O)c(OC)c1"
96.1

Ok, now "O=NN(CC(=O)N/N=C/C=C\c1ccccc1)CC(=O)N/N=C/C=C/c1ccccc1"
51

Ok, now "NCCNc1ccc2cc(-c3nc4ccccc4[nH]3)c(=O)oc2c1"
98.2

Ok, now "CCN(CC)CCOC(=O)c1ccc(N=Nc2ccc(O)c(OC)c2)cc1"
95.1

Ok, now "COc1ccc(/C=C(\c2cc(OC)c(OC)c(OC)c2)c2nnc(-c3cccs3)o2)cc1"
47.6

Ok, now "CN1CCN(c2nc(-c3cccnc3)nc3sc4c(c23)CCCCCC4)CC1"
95.1

Ok, now "Fc1ccc(-c2cc(C(Cl)Cl)no2)cc1"
109

Ok, now "Cc1ccc(C)c2c1sc1nc3n[nH]c(N)c3c(=N)n12"
97.9

Ok, now "COC(=O)c1cnc2c(c1)Oc1ccc(Cl)cc1-c1cc(C)nn1-2"
96

Ok, now COc1ccc(/C=C2\CCC3C(CCCC34OCCO4)C2=O)cc1 (stereo not drawn)
97.2
